target: T1, CD16A F158 (human, UniProt P08637 17-208, limits assumed); test: method not stated at Table 3
T1 construct: construct not described
T1 sequence (P08637 17-208 limits assumed): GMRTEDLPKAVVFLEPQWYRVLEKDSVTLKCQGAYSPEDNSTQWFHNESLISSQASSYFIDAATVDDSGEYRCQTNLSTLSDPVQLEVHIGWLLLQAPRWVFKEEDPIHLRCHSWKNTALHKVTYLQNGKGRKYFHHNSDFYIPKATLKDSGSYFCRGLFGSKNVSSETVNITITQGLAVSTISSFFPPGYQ
property.measured: binding relative to wild-type Fc (fold)
The response must be a number in fold with no trailing unit.

binder	reported.value
Fc mutant 16: F243L R292P Y300L P396L (other, UniProt P01857-1 104-330, looked up, domain: Fc) DKTHTCPPCPAPELLGGPSVFLLPPKPKDTLMISRTPEVTCVVVDVSHEDPEVKFNWYVDGVEVHNAKTKPPEEQYNSTLRVVSVLTVLHQDWLNGKEYKCKVSNKALPAPIEKTISKAKGQPREPQVYTLPPSRDELTKNQVSLTCLVKGFYPSDIAVEWESNGQPENNYKTTPLVLDSDGSFFLYSKLTVDKSRWQQGNVFSCSVMHEALHNHYTQKSLSLSPGK	5.62
Fc variant F243L P247L N421K (other, UniProt P01857-1 104-330, looked up, domain: Fc) DKTHTCPPCPAPELLGGPSVFLLPPKLKDTLMISRTPEVTCVVVDVSHEDPEVKFNWYVDGVEVHNAKTKPREEQYNSTYRVVSVLTVLHQDWLNGKEYKCKVSNKALPAPIEKTISKAKGQPREPQVYTLPPSRDELTKNQVSLTCLVKGFYPSDIAVEWESNGQPENNYKTTPPVLDSDGSFFLYSKLTVDKSRWQQGKVFSCSVMHEALHNHYTQKSLSLSPGK	1.71

From here, focus on the item given below.
Req: Item Fc mutant 13: F243L R292P V305I (other, UniProt P01857-1 104-330, looked up, domain: Fc) DKTHTCPPCPAPELLGGPSVFLLPPKPKDTLMISRTPEVTCVVVDVSHEDPEVKFNWYVDGVEVHNAKTKPPEEQYNSTYRVVSILTVLHQDWLNGKEYKCKVSNKALPAPIEKTISKAKGQPREPQVYTLPPSRDELTKNQVSLTCLVKGFYPSDIAVEWESNGQPENNYKTTPPVLDSDGSFFLYSKLTVDKSRWQQGNVFSCSVMHEALHNHYTQKSLSLSPGK : provide binding relative to wild-type Fc
Resp: 1.43
